Tested on: 8XTBD luciferase reporter
run description: YAP Reporter Assay
Type: cell-based
reported conditions: Homo sapiens, HEK-293T; HEK293T cells stably transfected with 8XTBD luciferase reporter and pRLTK; 24-hr incubation; starting from 3 μM, 1:3 dilution, 10 points; read-out: Firefly Luciferase IC50
pIC50: −log10 of the molar value.
Below: a set of entries, each annotated with reported pIC50.
measurement type: pIC50

                                    molecule  result_value
 0  CNS(=O)(=O)c1ccc(NC2CCCCC2)c(-c2nnn(C3CCN(C(C)=O)C3)n2)c1 (centres unmarked)  6.00 to 7.00
 1  CNS(=O)(=O)c1ccc(Nc2cccc(C(F)(F)F)c2)c(-c2ccnc(N)c2)c1  5.52 to 6.00
 2  CNS(=O)(=O)c1ccc(Nc2ccc(C(F)(F)F)cc2)c(-c2nnn(Cc3ccccc3F)n2)c1        ≥ 7.00
 3  CNS(=O)(=O)c1ccc(NC2CCCCC2)c(-c2nnn(C3CN(C(=O)OC(C)(C)C)C3)n2)c1        < 5.52
 4  CNS(=O)(=O)c1ccc(NC2CCCCC2)c(-c2nnn(C3CCCN(c4cccnc4)C3)n2)c1 (centres unmarked)  6.00 to 7.00
 5   CS(=O)(=O)c1ccc(NC2CCCCC2)c(-n2nccn2)c1  6.00 to 7.00
 6  CNS(=O)(=O)c1ccc(NC2CCCCC2)c(-c2cc(N(C)C)ccn2)c1        ≥ 7.00
 7  CNS(=O)(=O)c1ccc(Nc2cccc(C(F)(F)F)c2)c(-c2nnn(Cc3ccccc3F)n2)c1        ≥ 7.00
 8   CS(=O)(=O)c1ccc(NC2CCCCC2)c(-n2cccn2)c1  5.52 to 6.00
 9  CNS(=O)(=O)c1ccc(NC2CCCCC2)c(-c2nnn(CC(C)C)n2)c1  6.00 to 7.00
10  CNS(=O)(=O)c1ccc(NC2CCCCC2)c(-c2nnn(C3CCCN(c4ccccc4)C3)n2)c1 (centres unmarked)        < 5.52
11  CNS(=O)(=O)c1ccc(NC2CCCCC2)c(-n2ccnn2)c1        < 5.52
12  CNS(=O)(=O)c1ccc(Nc2ccc(OC(F)(F)F)cc2)c(-c2nnn(C)n2)c1        ≥ 7.00
13  CNS(=O)(=O)c1ccc(NC2CCCCC2)c(-c2nnn(-c3ccccc3F)n2)c1  6.00 to 7.00
14  CNS(=O)(=O)c1ccc(NC2CCCCC2)c(-c2nnn(-c3ccccc3)n2)c1        < 5.52
15  CNS(=O)(=O)c1ccc(Nc2cccc(SC(F)(F)F)c2)c(-c2cn(C)cn2)c1        ≥ 7.00
16  CNS(=O)(=O)c1ccc(NC2CCCCC2)c(-c2ncccn2)c1        ≥ 7.00
